system: HCC-2998 colon; test: NCI tumour cell line growth inhibition, 48 h
Readout Label: TGI

Worked cases, answers included:
{"columns": ["Molecule", "TGI"],
 "data": [
  ["CC(C)=CCC/C(C)=C/CCC1(C)C2COC(=O)C21 (centres undefined)", "> 100 µM"],
  ["CC(=O)OCC1OC(O[C@@H]2C[C@H]3C(C)(C)[C@H](OC(C)=O)CC[C@]3(C)[C@H]3CC[C@@H]4[C@]5(CC[C@@]4(C)[C@@]32C)O[C@@H]([C@H](O)C(C)(C)O)C[C@@H]5C)C(O)C(O)C1O (some centres undefined)", "15.9 µM"],
  ["COC(=O)[C@]12CCC(=O)N1[C@H](C(=O)O)Cc1c2[nH]c2ccccc12", "> 100 µM"]
]}

Attention now turns to another entry.
Exam item: Record request: TGI value, item C1CN(C23OC4(N5CCOCC5)C5C6CC(C7C6C4C72)C53)CCO1 (centres undefined)
Marked response: > 100 µM

###

test system: DLD-1 colon
Hello, when you answer, please use one of the following outcomes: active, inactive

{"columns": ["Compound", "Group"],
 "data": [
  ["O.O=[Se](=O)(O)O.[NH-]C1CCCCC1[NH-].[Pt+2] (centres undefined)", "inactive"]
]}

Exam item: What was the test verdict on O=C1/C(=C/c2ccc(Cl)c(Cl)c2)CN(C(=O)CCN2CCOCC2)C/C1=C\c1ccc(Cl)c(Cl)c1 ?
Marked response: active

Exam item: And the next one, CC1=CC(=O)c2[nH]c3ccccc3c2C1=O ?
Marked response: inactive

Exam item: // query: O=C(O)C(O)C(O)C1[O][Sb][O]C1CO (centres undefined)
Marked response: inactive

###

tested on: DU-145 prostate; assay: NCI tumour cell line growth inhibition, 48 h
Readout Label: TGI

{"columns": ["Molecule", "System Name", "TGI"],
 "data": [
  ["O=C(O)c1cc2c(cc1CC(Cc1ccccc1)C(=O)O)CCC2 (stereo unspecified)", "DU-145 prostate", "> 100 µM"],
  ["NC(=S)N1N=C(c2ccc3c(c2)CCC3)CC1c1ccccc1 (stereo unspecified)", "DU-145 prostate", "80.8 µM"],
  ["COc1ccc(N2C(=O)CSC2c2cc(OC)c(OC)c(OC)c2)cc1 (stereo unspecified)", "DU-145 prostate", "72.2 µM"],
  ["Clc1cccc(Cl)c1C1ON=C(c2ccccc2)N1C12CC3CC(CC(C3)C1)C2 (stereo unspecified)", "DU-145 prostate", "> 100 µM"],
  ["COCCOC(=O)CCn1cc(F)c(=O)[nH]c1=O", "DU-145 prostate", "> 150 µg/mL"],
  ["C[N+](C)(C)c1nc(N)nc2c1ncn2C1OC(CO)C(O)C1O (stereo unspecified)", "DU-145 prostate", "> 100 µM"]
]}

Exam item: Tell me the measured TGI of O=C(O)CCN1C(=O)/C(=C/C(Cl)=C/c2ccccc2)SC1=S , please.
Marked response: 12.4 µM

Exam item: Same question for NC(=O)c1ccc(-c2c3ccccc3cc3c2ccc2ccccc23)cc1 please.
Marked response: 26.2 µM

Exam item: Proceed to Oc1cc(Br)cc2cc(Br)cnc12
Marked response: 60.8 µM

Exam item: Cool, now Cc1ccc(Oc2cc(C)ccc2P(=O)(O)O)cc1
Marked response: > 100 µM

Exam item: One more molecule: Cn1cc(/C=C2\C(=O)Nc3cccnc32)c2ccccc21
Marked response: > 25 µM

Exam item: What do we get for CNc1ccc([N+](=O)[O-])cc1C(=O)N1CCC[C@H]1CO ?
Marked response: > 100 µM

Exam item: Please do the same for CN(NC(=O)/C(=C/C=C/c1ccccc1)NC(=O)c1ccccc1)C1=C(Cl)C(=O)[N+](c2ccccc2)=CC1 as well.
Marked response: > 100 µM

Exam item: Follow-up entry: Cc1cccc(/C=N/NC(=S)NC(C)(C)C)n1
Marked response: > 100 µM

Exam item: Another molecule to look at: COc1cc(/C=C2\N=C(c3ccccc3)N(c3ccc(C(=O)c4ccccc4)cc3N3C(=O)/C(=C/c4cc(OC)c(OC)c(OC)c4)N=C3c3ccccc3)C2=O)cc(OC)c1OC
Marked response: 40.3 µM

Exam item: Param item: O=C1C(=O)C(CCCO)(CCCO)CCCCCCCCC1(CCCO)CCCO
Marked response: > 100 µM

Exam item: Try CN(C)CCCN1C(=O)N(CCCN(C)C)c2c3cc(O)ccc3nc3c([N+](=O)[O-])ccc1c23 next.
Marked response: 64 µM

###

test system: CCRF-CEM leukemia; assay: NCI tumour cell line growth inhibition, 48 h
This section presents molecules with their documented TGI values.
Just the number in µM, nothing appended.

{"columns": ["Molecule", "System Name", "Quantity Unit", "TGI"],
 "data": [
  ["COCCOCCOCCOCCOc1ccc2c(c1)C(=O)c1nc3ncccc3c(=O)n1-2", "CCRF-CEM leukemia", "µM", 7.4],
  ["CCN(CC)c1ccc(/C=N\\NC(=O)c2cccc(Nc3ccnc(C(F)(F)F)c3)c2)c(O)c1", "CCRF-CEM leukemia", "µM", 1.27],
  ["CC(C)(CN1CCCCC1)C(=O)CC(SCCS(=O)(=O)O)c1ccc(Cl)c(Cl)c1 (configuration not stated)", "CCRF-CEM leukemia", "µM", 4.69],
  ["CCNC1=CC(=O)c2ncccc2C1=O", "CCRF-CEM leukemia", "µM", 42.4],
  ["O=[N+]([O-])C(=C(c1ccccc1)c1ccccc1)[N+](=O)[O-]", "CCRF-CEM leukemia", "µM", 22.1]
]}

Exam item: Please state recorded TGI (tested on CCRF-CEM leukemia) of O=C1CCCc2c(O)ccc(O)c21
Marked response: 71.7

Exam item: Request: C=C1C(=O)O[C@H]2[C@@H](O)[C@H](C)CCC/C(C)=C/CC[C@@]3(C)O[C@@H]3C[C@@H]12
Marked response: 11.7

Exam item: O=C(O)c1c(Cl)c(Cl)c(Cl)c(Cl)c1-c1c2cc(I)c(=O)c(I)c-2oc2c(I)c(O)c(I)cc12 , same question.
Marked response: 95.7

Exam item: What about Cc1ccc2c3ccc4c(c3n(C)c2c1)C(=O)C=CC4=O ?
Marked response: 0.844

Exam item: Follow-up entry: COc1cc(/C=C2\N=C(c3ccccc3)N(c3ccc(C(=O)c4ccccc4)cc3N3C(=O)/C(=C/c4cc(OC)c(OC)c(OC)c4)N=C3c3ccccc3)C2=O)cc(OC)c1OC
Marked response: 39.8

###

tested on: NCI-H226 lung; assay: NCI tumour cell line growth inhibition, 48 h
Readout Label: TGI

Recorded results for 7 compounds are shown here.
{"columns": ["Compound", "TGI"],
 "data": [
  ["Cc1[nH]nc(C(=O)N/N=C/c2cccs2)c1N=NN(C)C", "70.1 µM"],
  ["OCC(CO)CC1COc2ccccc2O1 (stereo not drawn)", "> 10 µM"],
  ["CCCNC(=O)Cn1c(-c2ccccc2)cc2ccccc21", "> 100 µM"],
  ["O=C(O)CCN1C(=O)/C(=C/C(Cl)=C/c2ccccc2)SC1=S", "95.9 µM"],
  ["CN(c1ccccc1)c1c(-c2ccccc2)c(=O)oc2c1ccc1occc12", "2.85 µM"],
  ["COc1ccc2c(c1)[n+]([O-])c(-c1ccc(Cl)c(Cl)c1)c(N)[n+]2[O-]", "> 100 µM"],
  ["Cc1cccc(-c2cc(=O)c3c(C)ccnc3[nH]2)c1", "> 100 µM"]
]}

Exam item: Could you tell me which TGI is on file for C1CN(C23OC4(N5CCOCC5)C5C6CC(C7C6C4C72)C53)CCO1 (stereo not drawn) ?
Marked response: > 100 µM

###

system: NCI-H23 lung; test: NCI tumour cell line growth inhibition, 48 h
Recorded log10 of TGI for the following compounds
Annotation: log10 of TGI, µM basis.

Worked examples, 8 compounds total:
{"columns": ["Compound", "log10 of TGI"],
 "data": [
  ["COc1ccc2c(c1)[n+]([O-])c(-c1ccc(Cl)c(Cl)c1)c(N)[n+]2[O-]", 1.49],
  ["CCCCCCCCSC(SCCCCCCCC)=C1C(=O)N(c2ccccc2)N=C1C", 1.98],
  ["O=c1c2cc(Cl)ccc2n2nnc3ccc(NCCNCCO)c1c32", 0.46],
  ["CN(CCc1ccccn1)C(=S)N/N=C/c1ccccn1", 1.14],
  ["C=C1C(=O)O[C@H]2[C@@H](O)[C@H](C)CCC/C(C)=C/CC[C@@]3(C)O[C@@H]3C[C@@H]12", 1.34],
  ["C=CC(=O)N1C/C(=C\\c2ccc(F)cc2)C(=O)/C(=C/c2ccc(F)cc2)C1", 0.52],
  ["CC(C)S(=O)(=O)n1c(N)nc2ccc(/C(=N/O)c3ccccc3)cc21", 1.78],
  ["O=C(Nc1ccc(-c2nc3ccc(NC(=O)c4ccc(Cl)cc4)cc3[nH]2)cc1)c1ccc(Cl)cc1", 1.21]
]}

Exam item: // returns reported log10 of TGI for input O=C(O)CCN1C(=O)/C(=C/C(Cl)=C/c2ccccc2)SC1=S
Marked response: 0.67

Exam item: Item: COc1cc([N+](=O)[O-])c2ncccc2c1O
Marked response: 0.68

Exam item: What do we get for Cc1cc(C(C)(C)C)c(OCCCN2CCOCC2)c(C(C)(C)C)c1 ?
Marked response: 1.51

Data origin: PubChem BioAssay (NCI)
